tgt: GTPase KRas (Homo sapiens, UniProt P01116)
Sequence (P01116 whole entry): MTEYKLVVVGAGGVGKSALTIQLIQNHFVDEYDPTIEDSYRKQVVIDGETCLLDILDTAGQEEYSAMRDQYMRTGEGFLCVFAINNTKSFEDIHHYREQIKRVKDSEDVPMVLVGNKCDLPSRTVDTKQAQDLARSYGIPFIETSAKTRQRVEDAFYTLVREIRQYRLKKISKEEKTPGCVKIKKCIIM
test details: Binding affinity to KRAS (unknown origin) assessed as inhibition constant
measured endpoint: pKi
Field pKi (float): negative decimal logarithm of the concentration in molar.

I'm curious: which pKi was measured for C=CC(=O)N1CCN(c2ncnc3c(F)c(-c4c(O)cccc4F)c(Cl)cc23)CC1 tested on GTPase KRas (Homo sapiens, UniProt P01116)?
4.51

* * *

test details: Binding affinity to KRAS […] mutant (unknown origin) assessed as dissociation constant
Design: species or system Homo sapiens
measured endpoint: Kd (nM)
Numeric only. Scale: nM

I have this molecule here, CN1CCC[C@H]1COc1nc(N2CC3CCC(C2)N3)c2cnc(-c3cc(O)cc4ccccc34)c(F)c2n1 , and I need its recorded Kd.
0.8

Give the measured Kd of C#Cc1c(F)ccc2cc(O)cc(-c3ncc4c(N5CC6CCC(C5)N6)nc(OC[C@@]56CCCN5C[C@H](F)C6)nc4c3F)c12 .
0.0002

Sample CN1CCC[C@H]1COc1nc(N2CCNCC2)c2cnc(-c3cccc4cccc(Cl)c34)c(F)c2n1 — what was its Kd?
3500
